Attribution: ChEMBL document CHEMBL1129882

Exercise: state measured log10 of IC50 for each of the compounds provided.
# TARGET_DESC: Integrin alpha-IIb/beta-3 (Homo sapiens, UniProt P05106+P08514)
# Sequence (P05106 27-788 limits assumed): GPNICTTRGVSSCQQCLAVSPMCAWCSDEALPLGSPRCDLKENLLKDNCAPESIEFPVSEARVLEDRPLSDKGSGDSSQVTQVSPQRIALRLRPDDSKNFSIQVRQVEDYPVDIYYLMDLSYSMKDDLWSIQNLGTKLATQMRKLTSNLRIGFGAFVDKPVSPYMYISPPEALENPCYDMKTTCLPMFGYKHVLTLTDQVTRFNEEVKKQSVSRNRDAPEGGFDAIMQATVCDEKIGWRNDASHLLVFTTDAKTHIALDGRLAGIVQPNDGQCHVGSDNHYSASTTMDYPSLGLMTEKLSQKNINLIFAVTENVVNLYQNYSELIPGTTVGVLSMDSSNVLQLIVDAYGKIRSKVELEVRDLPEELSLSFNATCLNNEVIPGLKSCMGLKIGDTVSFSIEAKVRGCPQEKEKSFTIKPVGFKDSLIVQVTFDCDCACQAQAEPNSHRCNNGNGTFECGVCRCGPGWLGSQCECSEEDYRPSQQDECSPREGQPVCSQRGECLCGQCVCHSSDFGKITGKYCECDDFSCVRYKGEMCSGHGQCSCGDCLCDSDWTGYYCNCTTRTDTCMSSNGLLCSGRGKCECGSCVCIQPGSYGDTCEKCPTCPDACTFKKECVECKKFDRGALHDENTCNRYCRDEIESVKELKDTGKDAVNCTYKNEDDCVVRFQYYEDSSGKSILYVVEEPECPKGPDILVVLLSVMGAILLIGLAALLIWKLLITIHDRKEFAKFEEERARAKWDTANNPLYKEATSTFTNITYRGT
# Sequence (P08514 32-887 limits assumed): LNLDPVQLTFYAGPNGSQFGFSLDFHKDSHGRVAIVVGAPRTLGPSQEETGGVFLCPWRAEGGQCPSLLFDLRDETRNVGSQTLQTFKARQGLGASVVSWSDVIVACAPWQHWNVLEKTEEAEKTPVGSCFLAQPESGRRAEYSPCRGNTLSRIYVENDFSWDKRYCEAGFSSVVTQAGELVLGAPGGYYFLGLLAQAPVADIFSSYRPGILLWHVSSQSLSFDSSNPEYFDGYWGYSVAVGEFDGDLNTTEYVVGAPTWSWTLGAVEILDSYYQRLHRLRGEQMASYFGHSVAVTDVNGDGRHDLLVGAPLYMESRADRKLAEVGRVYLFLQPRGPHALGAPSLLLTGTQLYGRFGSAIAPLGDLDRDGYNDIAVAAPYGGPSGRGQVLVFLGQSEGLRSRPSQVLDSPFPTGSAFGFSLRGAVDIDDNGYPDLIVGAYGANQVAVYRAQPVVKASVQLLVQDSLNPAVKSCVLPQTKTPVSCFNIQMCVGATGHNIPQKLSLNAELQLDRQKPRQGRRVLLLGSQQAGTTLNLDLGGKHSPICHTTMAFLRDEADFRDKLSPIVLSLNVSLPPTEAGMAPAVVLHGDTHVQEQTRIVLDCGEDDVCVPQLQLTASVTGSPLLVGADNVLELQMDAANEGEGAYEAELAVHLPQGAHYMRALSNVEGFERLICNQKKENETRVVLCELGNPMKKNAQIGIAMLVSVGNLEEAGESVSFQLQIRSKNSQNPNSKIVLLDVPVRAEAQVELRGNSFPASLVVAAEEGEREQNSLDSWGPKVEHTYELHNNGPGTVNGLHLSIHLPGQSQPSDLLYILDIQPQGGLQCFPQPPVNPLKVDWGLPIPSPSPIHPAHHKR
# Sequence (P08514 891-1039 limits assumed): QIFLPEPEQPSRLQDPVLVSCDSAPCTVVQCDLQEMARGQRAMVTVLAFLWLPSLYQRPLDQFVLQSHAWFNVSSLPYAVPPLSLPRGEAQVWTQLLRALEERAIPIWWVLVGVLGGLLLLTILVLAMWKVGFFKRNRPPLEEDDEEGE
# ASSAY_INFO: Inhibition of fibrinogen binding to immobilized human glycoprotein alpha IIb beta-3 integrin
# Assay type: protein-complex assay
Field: value | Transform: log10 | Quantity: IC50 | Unit: nM

N=C(N)c1ccc(CC(=O)NCCC[C@@H](CC(=O)O)NC(=O)CC23C[C@H]4C[C@@H](C2)C[C@@H](C3)C4)cc1 ... 0.34
CC(C)CC(=O)N[C@H](CCCCNC(=O)c1ccc(C(=N)N)cc1)CC(=O)O ... -0.27
N=C(N)c1ccc(C(=O)NCCCC[C@H](CC(=O)O)NC(=O)Cc2cccc3ccccc23)cc1 ... -0.44
COc1ccc(CCC(=O)N[C@@H](CCCNC(=O)Cc2ccc(C(=N)N)cc2)CC(=O)O)cc1 ... 0.04
CC(C)CNC(=O)[C@@H](CCCNC(=O)Cc1ccc(C(=N)N)cc1)CC(=O)O ... 0.90

Hi there! I need log10 of IC50 for each item below, if you can.
1. Cc1ccc(S(=O)(=O)N[C@@H](CCCNC(=O)Cc2ccc(C(=N)N)cc2)C(=O)O)cc1
2. COc1ccc(CCC(=O)N[C@H](CCCCNC(=O)c2ccc(C(=N)N)cc2)CC(=O)O)cc1
3. N=C(N)c1ccc(CC(=O)NCCC[C@@H](CC(=O)O)NC(=O)CCC23C[C@H]4C[C@@H](C2)C[C@@H](C3)C4)cc1
4. COc1ccc(CCS(=O)(=O)N[C@H](CCCCNC(=O)c2ccc(C(=N)N)cc2)CC(=O)O)cc1

4.68
-0.44
-0.43
0.00
